# TEST DETAILS: chemical genetic growth profiling, strain panel (AID 1159580);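 further: tested at 20 µM; growth read once vehicle control cultures reached saturation at 30 °C; 1 = growth at the plate median or of vehicle wells; lower values mean less growth of the strain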
# MEASUREMENT CONTEXT: S. cerevisiae deletion strains, growth OD, locus YER167W, strain BCK2, active compounds read low
Out of some 5,500 compounds screened, about 2,000 (36%) were called active. Roughly 18% stayed inconclusive and do not appear here. The list shows a part of the results.
Below is a list of entries, each paired with its recorded normalized growth value.
Just the number.

Some solved entries appear below for comparison.
CC1(C)C2(Cl)C(Cl)C(Cl)C(Cl)(C(Cl)Cl)C1(Cl)C2Cl (configuration not stated)    0.975
CC(C)C(=O)Nc1ccc([N+](=O)[O-])c(C(F)(F)F)c1    0.969
COc1c(OC)c2occc2c2oc(=O)ccc12    0.97

Lookup: Query: normalized growth; subject: NC[C@@H]1CC[C@@H](N)[C@@H](O[C@H]2[C@H](O)[C@@H](O[C@H]3O[C@H](CO)[C@@H](O)[C@H](N)[C@H]3O)[C@H](N)C[C@@H]2N)O1
Found: 0.98

Lookup: Entry under review: CC(=O)OCC[C@H](C)CCC=C(C)C . Reported normalized growth?
Found: 1.01

Lookup: Return reported normalized growth; argument: COc1cc(-c2coc3cc(OCc4ccccc4)c(OC)c(O)c3c2=O)cc(O)c1OC
Found: 0.879

Lookup: Fill blank: measured normalized growth of the molecule COc1ccc2c(c1)CCC(c1ccccc1)=C2c1ccc(OCCN2CCCC2)cc1 is ____.
Found: 0.85

Lookup: Name the reported normalized growth value associated with the molecule CC[N+](CC)(CC)CCOc1cccc(OCC[N+](CC)(CC)CC)c1OCC[N+](CC)(CC)CC
Found: 1.01

Lookup: Field request: normalized growth | item: COc1cc2occ(-c3ccccc3)c(=O)c2c(OC)c1C
Found: 0.881

Lookup: What value of normalized growth has been reported for the following molecule? CC[C@H](C)C(=O)O[C@H]1CCC=C2C=C[C@H](C)C(CCC3C[C@@H](O)CC(=O)O3)[C@H]21 (some centres not stated)
Found: 0.99

Lookup: Which measured normalized growth value corresponds to CC1(C)OC(=O)C=CC2(C)C1CC(O)C1(C)C2CCC2(C)C(c3ccoc3)OC(=O)C3OC321 (configuration not stated) ?
Found: 0.997

Lookup: Fill in: normalized growth of Nc1ccc(N=Nc2ccccc2)c(N)n1 is ___
Found: 1.02

Lookup: Name the recorded normalized growth for C#CCCCCCCCCCCCC(O)CC(O)COC(C)=O (configuration not stated) .
Found: 0.953

Lookup: What value of normalized growth has been recorded for this entry: C#CCCCCCCCCCCCC(=O)CC(O)COC(C)=O (configuration not stated)
Found: 0.807

Lookup: Entry CC[C@H](C)C(=O)O[C@H]1C[C@@H](C)C=C2C=C[C@H](C)[C@H](CC[C@@H]3C[C@@H](O)CC(=O)O3)[C@H]21 : reported normalized growth = ?
Found: 0.942

Lookup: Requested field: normalized growth. Item: CCNC(=O)CC[C@H](N)C(=O)O
Found: 0.995

Lookup: Data request, read-out normalized growth, for O=C1NC(=O)C(=O)C(=O)N1
Found: 1.03

Lookup: What value of measured normalized growth is listed for COc1cc(-c2coc3cc(OC)c(OC)c(OC)c3c2=O)cc(OC)c1OC ?
Found: 1

Lookup: GET /values?readout=normalized growth&item= CCC(C)c1cnc(CC(C)C)c(=O)n1O (configuration not stated)
Found: 0.998

Lookup: Requested read-out: normalized growth. Entry: COc1c2ccoc2c(OC)c2oc(=O)ccc12
Found: 0.97

Lookup: Need normalized growth, item CCCNC1CCc2nc(N)sc2C1 (configuration not stated)
Found: 1.01

Lookup: Endpoint output: normalized growth of CC1(C)NC(=O)N(c2ccc([N+](=O)[O-])c(C(F)(F)F)c2)C1=O . Value?
Found: 1.01
